# Test details: Pharmacokinetics of exemestane, additional 21 patients
# Format: in vivo
# Setup conditions: female, human, plasma, oral
Readout name: Tmax

Fill in: Tmax of C=C1C[C@@H]2[C@H](CC[C@]3(C)C(=O)CC[C@@H]23)[C@@]2(C)C=CC(=O)C=C12 [Exemestane] is ___
3.95 h

====

# Test details: Plasma pharmacokinetics of entinostat
# Assay type: in vivo, human
# Setup conditions: female, human, plasma, po, 3 mg/week
Readout name: AUC(0-inf) (ng·h/mL)
Quick note: give the figure in ng·h/mL, leave out the unit.

# input molecule: "Nc1ccccc1NC(=O)c1ccc(CNC(=O)OCc2cccnc2)cc1" ; wanted: its AUC(0-inf)
609

====

# Test details: Plasma pharmacokinetics of entinostat
# Format: in vivo, human
# Setup conditions: female, human, plasma, po, 5 mg
Readout name: half-life (h)
Report as a plain number; the unit h is understood.

Consider the compound shown here: Nc1ccccc1NC(=O)c1ccc(CNC(=O)OCc2cccnc2)cc1 [Entinostat] What is its recorded half-life?
51.7

====

# Test details: Plasma pharmacokinetics of entinostat
# Format: in vivo, human
# Setup conditions: female, human, plasma, oral
Readout name: Tmax

Entry Nc1ccccc1NC(=O)c1ccc(CNC(=O)OCc2cccnc2)cc1 [Entinostat] : reported Tmax = ?
~30 min

====

# Test details: Plasma pharmacokinetics of entinostat
# Format: in vivo, human
# Setup conditions: female, human, plasma, po, 3 mg
Readout name: Cmax
Entry format: amount then unit.

Item "Nc1ccccc1NC(=O)c1ccc(CNC(=O)OCc2cccnc2)cc1" has what recorded Cmax?
49.2 ng/mL

====

# Test details: Plasma pharmacokinetics of entinostat
# Assay type: in vivo, human
# Setup conditions: female, human, plasma, po, 5 mg/week
Readout name: Cmax (ng/mL)
Reply numerically in ng/mL, unit not repeated.

Entry under review: "Nc1ccccc1NC(=O)c1ccc(CNC(=O)OCc2cccnc2)cc1" . Reported Cmax?
107

====

# Test details: Plasma pharmacokinetics of entinostat
# Format: in vivo, human
# Setup conditions: female, human, plasma, po, 7 mg
Readout name: Cmax
Numeric answer plus unit only.

What Cmax value was documented for this molecule, "Nc1ccccc1NC(=O)c1ccc(CNC(=O)OCc2cccnc2)cc1" ?
154 ng/mL

====

# Test details: Plasma pharmacokinetics of entinostat
# Assay type: in vivo, human
# Setup conditions: female, human, plasma, po, 7 mg
Readout name: Tmax (min)
Write the answer as a number in min, unit excluded.

Quick check: Tmax of "Nc1ccccc1NC(=O)c1ccc(CNC(=O)OCc2cccnc2)cc1" ?
33

====

# Test details: Plasma pharmacokinetics of entinostat
# Type: in vivo, human
# Setup conditions: female, human, plasma, oral
Readout name: half-life

Given the compound "Nc1ccccc1NC(=O)c1ccc(CNC(=O)OCc2cccnc2)cc1" , what is its reported half-life?
38.3 to 65.3 h

====

# Test details: Pharmacokinetics of exemestane, additional 21 patients
# Assay type: in vivo
# Setup conditions: female, human, plasma, oral, 25 mg
Readout name: Cmax
Record the result as number plus unit.

Which Cmax value is on record for "C=C1C[C@@H]2[C@H](CC[C@]3(C)C(=O)CC[C@@H]23)[C@@]2(C)C=CC(=O)C=C12" ?
17 ng/mL

====

# Test details: Plasma pharmacokinetics of entinostat
# Type: in vivo, human
# Setup conditions: female, human, plasma, po, 7 mg/week
Readout name: half-life (h)
Expressed in h, but write only the number.

# get_value(readout='half-life', item= "Nc1ccccc1NC(=O)c1ccc(CNC(=O)OCc2cccnc2)cc1" )
56.2
